tested on: NCI-H23 lung; test: NCI-60 one-dose screen, 48 h (100 = growth as untreated, 0 = no growth, -100 = all killed); details: 10 µM unless noted
Compounds without any hit were thinned out: in the full panel of roughly 83,000, 20% have a hit.
// values below are reported growth

molecule: COc1cc(Nc2cc(C)nc(N3CCN(c4ccnc5cc(Cl)ccc45)CC3)n2)cc(OC)c1
assayed system: NCI-H23 lung
display unit: %
growth: 9.55
//
molecule: O=C(COc1ccc(-c2nc3cc(Cl)c(Cl)cc3[nH]2)cc1)N=Nc1c(O)[nH]c2ccccc12
assayed system: NCI-H23 lung
display unit: %
growth: 31.8
//
molecule: COc1cc2c(cc1OC)C(Sc1ccc(SC)cc1)c1c(nc(N)c(C#N)c1N)O2 (stereo not given)
assayed system: NCI-H23 lung
display unit: %
growth: -56.1
//
molecule: CCCOc1ccc2nc(NC(=O)OC)[nH]c2c1
assayed system: NCI-H23 lung
display unit: %
growth: 21.9
//
molecule: O=C1/C(=C/c2ccc(Cl)cc2)SC(=S)N1CCc1ccc(O)cc1
assayed system: NCI-H23 lung
display unit: %
growth: 89.7

====

system: SF-539 CNS; assay: NCI-60 one-dose screen, 48 h; conditions: 10 µM unless noted
This is part of a sample that, as a whole, favours compounds with a hit. Of some 83,000 tested, about 20% had one in any assay. The source made the active and inactive calls. The calls were made as follows: active = growth percent below 10; inactive = the rest.
Outcome codes: YES = active, NO = inactive

compound: CCOC(=O)n1cc(-c2nonc2-c2cn(C)c3ncccc23)c2cc(F)ccc21
answer label: NO

compound: CC(=O)c1cc2c(N)c(C(=O)Nc3cccc4ccccc34)sc2nc1C
answer label: YES

compound: CC1C(/C=N/Nc2ccccc2)C(C#N)(C#N)C1(C#N)C#N (stereo not drawn)
answer label: NO

compound: OCc1ccc(N2CCc3cccc(F)c3C2)cc1Cl
answer label: NO

compound: Oc1ccc(N=Cc2ccccc2O)cc1
answer label: NO

compound: Cn1c(NCCc2ccc(O)c(O)c2)nc2c1c(=O)n(Cc1ccc(Cl)c(Cl)c1)c(=O)n2C
answer label: NO

compound: C=C(C)C1CC(O)C2(C)CCCC3C2C1CC(C)C3(C)CC/C(C)=C/C(O)C1CCC(=O)c2c(OC)cc(OC)cc21 (stereo not drawn)
answer label: NO

compound: COc1ccc2nc(NC(=O)CSc3nnc4n3S(=O)(=O)c3ccccc3N4c3ccccc3)sc2c1
answer label: NO

compound: CCOC(=O)c1c(C)oc2ncnc(N3CCN(C(=O)COc4ccc(SC)cc4)CC3)c12
answer label: NO

compound: CSc1nc2c(c(=O)[nH]1)C1(C(=O)Nc3ccccc31)c1c(nc(SC)[nH]c1=O)N2
answer label: NO

compound: Oc1cccc2ccc(N/N=C/c3cc(CN4CCOCC4)c(O)c4ncccc34)nc12
answer label: YES

compound: CCOC(=O)C(C)(C#N)C1C=CCCC1 (stereo not drawn)
answer label: NO

compound: CC(=O)Oc1ccc(Cl)cc1CN(C(C)=O)C1CCCCC1
answer label: NO

compound: O=c1cc(/C(=C2/C=CC=N2)c2ccc[nH]2)c2cc(Cl)ccc2o1
answer label: NO

compound: COc1cccc(/C=C2\Oc3cc(OCCN4CCCC4)ccc3C2=O)c1
answer label: NO

compound: O=c1c(F)cn(Cc2ccccc2CCl)c(=O)n1Cc1ccccc1CCl
answer label: YES

compound: Cc1ccc(-c2onc3c(=O)[nH]nc(-c4ccccc4)c23)cc1
answer label: YES

compound: COc1ccc(-c2nc3cc(C(=O)Nc4cc(OC)c(OC)c(OC)c4)ccc3n2C2CCCCC2)cc1
answer label: NO

compound: Cn1cc(C(=O)c2nc(-c3c[nH]c4ccc(Br)cc34)no2)c2cc(F)ccc21
answer label: NO

compound: Cc1oc(-c2ccc(Cl)cc2Cl)cc1C(=O)Nc1nccs1
answer label: NO

compound: COc1ccc(-c2cc(NC(=O)Nc3ccc4ncsc4c3)no2)cc1
answer label: NO

compound: COc1cc(-c2nn(-c3ccc(Br)cc3)cc2C(=O)O)ccc1O
answer label: NO

compound: CCCOc1ccc2nc(NC(=O)OC)[nH]c2c1
answer label: YES

compound: Nc1ccc(-c2cc3c(Nc4ccc(Oc5cccc(C(F)(F)F)c5)c(Cl)c4)ncnc3s2)cc1
answer label: NO

compound: C=CC(=O)Nc1cccc(-c2nc(SC)nc(NCCN3CCOCC3)c2C#N)c1
answer label: NO

compound: OCCN1CCN(c2nc(Nc3ccc(-c4nc5ccccc5[nH]4)cc3)c3cn[nH]c3n2)CC1
answer label: YES

compound: Cc1cc(C)nc(SC2=C(Nc3ccc(O)cc3)C(=O)N(Cc3ccccc3)C2=O)n1
answer label: NO

compound: CC(C)CSc1nc(N)nc2c1ncn2C1OC(CO)C(O)C1O (stereo not drawn)
answer label: NO

compound: CC(=O)O[C@H]1C(=O)[C@@]2(C)[C@H]([C@H](OC(=O)c3ccccc3)[C@]3(O)C[C@H](OC(=O)[C@H](OC(=O)CCC(=O)OC4CCC(S/N=C(N)/N=C(\N)N(C)C)CC4)[C@@H](NC(=O)c4ccccc4)c4ccccc4)C(C)=C1C3(C)C)[C@]1(OC(C)=O)CO[C@@H]1C[C@@H]2O (stereo partly drawn)
answer label: YES

compound: COc1ccc(S(=O)(=O)N2CCN(C)CC2)cc1NC(=O)c1[nH]c(C)c2c1CCCCC2=O
answer label: NO

compound: COc1cc(/C=C/C(=O)c2ccc(O)c(CN3CCN(c4cc5c(cc4F)c(=O)c(C(=O)O)cn5C4CC4)CC3)c2)cc(OC)c1OC
answer label: NO

compound: Cn1cc(-c2nonc2-c2cn(C)c3ccc(F)cc23)c2cc(F)ccc21
answer label: NO

compound: C=CC(=O)Nc1cccc(-c2nc(SC)nc(NCCc3ccc(OC)c(OC)c3)c2C#N)c1
answer label: NO
